Procedure summary: Plasma protein binding in human at 2 mg, po single dose
Condition notes: in vivo
Metric: fraction unbound
// no unit, no text: just the number

*Q* Query fraction unbound for Cl.Nc1c2c(nc3ccccc13)CCCC2 [TACRINE HYDROCHLORIDE]
*A* 0.45

----------
Procedure summary: in vivo
Condition notes: Lister Hooded, rat, blood, iv, 1 mg/kg
Below, each entry is listed alongside its reported clearance at 1 h.
Provide the reading as a plain figure in mL/min/kg.

• Br.COc1ccc2c3c1O[C@H]1C[C@@H](O)C=C[C@@]31CCN(C)C2 [GALANTAMINE HYDROBROMIDE] = 34

Okay, now this compound:
*Q* Specify clearance at 1 h for COc1cc2c(cc1OC)C(=O)C(CC1CCN(Cc3ccccc3)CC1)C2.Cl (configuration not stated) [DONEPEZIL HYDROCHLORIDE] and stop.
*A* 43

----------
Procedure summary: Drug excretion in human urine assessed as unchanged drug level at 2 mg, po single dose
Assay type: ADME, organism-based
Condition notes: read-out: Drug excretion
Measured dose excreted, listed per entry.
Give the value, in units of %, as a plain number.

- Br.COc1ccc2c3c1O[C@H]1C[C@@H](O)C=C[C@@]31CCN(C)C2 [GALANTAMINE HYDROBROMIDE]: 32

*Q* Let me know recorded dose excreted for COc1cc2c(cc1OC)C(=O)C(CC1CCN(Cc3ccccc3)CC1)C2.Cl (configuration not stated) [DONEPEZIL HYDROCHLORIDE] , thanks.
*A* 17
